Assay: Solubility determinations in SIF buffers FaSSIF, FeSSIF, FaSSGF (Example 8, Experiment 5)
Settings: 37 °C, pH 1.6, fassgf or other biorelevant, thermodynamic from solid
Measured property: solubility at 3 h
Phrase the answer as number then unit, nothing more needed.

Ask: Which measured solubility at 3 h value corresponds to COc1ccc2c3c([nH]c2c1)CCN(C)CC3 [Tabernanthalog• Sorbate] ?
Result: 29.8 mg/mL

---

Assay: Heat-up/cool-down crystallisation screen of sorbate salt (Example 10, Experiments 5, 8)
Type: physicochemical
Details: Experiment 5; Tabernanthalog sorbate salt (Form A) crystallised from binary solvents, solvent A 3.0 vol plus solvent B, one pair per sample
Experimental: The relevant solvent (0.225 ml, 3.0 vol) was added to the appropriate vial and the suspensions were stirred and warmed to temperature. […] Products from the crystallisation (wet and dry) were initially analysed by XRPD (9-minute method), further analyses of certain products were performed by ^1H NMR, DSC and TGA, if the diffraction pattern indicated differences.
Measured property: Observations (t = 1 @ T = 20° C.)

A selection of reference data follows.
- Compound: "C/C=C/C=C/C(=O)O.COc1ccc2c3c([nH]c2c1)CCN(C)CC3 [Experiment 5-Sample Q]"
  Observations (t = 1 @ T = 20° C.): "Solid"
- Compound: "C/C=C/C=C/C(=O)O.COc1ccc2c3c([nH]c2c1)CCN(C)CC3 [Experiment 5-Sample P]"
  Observations (t = 1 @ T = 20° C.): "Partial"
- Compound: "C/C=C/C=C/C(=O)O.COc1ccc2c3c([nH]c2c1)CCN(C)CC3 [Experiment 5-Sample O]"
  Observations (t = 1 @ T = 20° C.): "Liquid"
- Compound: "C/C=C/C=C/C(=O)O.COc1ccc2c3c([nH]c2c1)CCN(C)CC3 [Experiment 5-Sample L]"
  Observations (t = 1 @ T = 20° C.): "Partial"
- Compound: "C/C=C/C=C/C(=O)O.COc1ccc2c3c([nH]c2c1)CCN(C)CC3 [Experiment 5-Sample I]"
  Observations (t = 1 @ T = 20° C.): "Liquid"

For the 4 compounds below, give their Observations (t = 1 @ T = 20° C.) values.
1. C/C=C/C=C/C(=O)O.COc1ccc2c3c([nH]c2c1)CCN(C)CC3 [Experiment 5-Sample J]
2. C/C=C/C=C/C(=O)O.COc1ccc2c3c([nH]c2c1)CCN(C)CC3 [Experiment 5-Sample G]
3. CC=CC=CC(=O)O.COc1ccc2c3c([nH]c2c1)CCN(C)CC3 [Experiment 5-Sample R]
4. C/C=C/C=C/C(=O)O.COc1ccc2c3c([nH]c2c1)CCN(C)CC3 [Experiment 5-Sample N]

Result:
Partial
Partial
Liquid
Partial

Ask: What Observations (t = 1 @ T = 20° C.) value was documented for this compound, C/C=C/C=C/C(=O)O.COc1ccc2c3c([nH]c2c1)CCN(C)CC3 [Experiment 5-Sample M] ?
Result: Liquid
